B1: EEHEE_rd4_0363 (parent)
chain: VTVDIKGMEYHFDNPEEAKKFAERMAKELGGELKVENGTLKVE

Variants of: B1
Test summary: folding stability dG (cDNA display proteolysis); higher = more stable
Assay conditions: PBS, room temperature
Metric name: folding stability dG
# do not omit the unit; it follows the number

Study these solved cases before continuing.
Residues: VTVDIKGMEYHFDNPEEAKKFAERMAKELGGELKVENGNLKVE [T39N]
folding stability dG: 1.84 kcal/mol
//
Residues: VTVDIKGMEYHFDNPEEAKPFAERMAKELGGELKVENGTLKVE [K20P]
folding stability dG: -0.999 kcal/mol
//
Residues: VWVDIKGMEYHFDNPEEAKKFAERMAKELGGELKVENGTLKVE [T2W]
folding stability dG: 2.04 kcal/mol
//
Residues: VTVDIKGMEYNFDNPEEAKKFAERMAKELGGELKVENGTLKVE [H11N]
folding stability dG: 1.32 kcal/mol
//
Residues: VTVDIKGMEYHFDNPEEAKKFAEWMAKELGGELKVENGTLKVE [R24W]
folding stability dG: 2.34 kcal/mol
//
Residues: VTVDIKGMEYHFDNPEEAKKFAERMAKELRGELKVENGTLKVE [G30R]
folding stability dG: 1.6 kcal/mol
//
Residues: QTVDIKGMEYHFDNPEEAKKFAERMAKELGGELKVENGTLKVE [V1Q]
folding stability dG: 1.33 kcal/mol
//
Residues: VTVDIKGMEYHFDNPEEASKFAERMAKELGGELKVENGTLKVE [K19S]
folding stability dG: 1.35 kcal/mol

Parameters: items (list). Returns: folding stability dG for each item.
1. VTVDIKGEEYHFDNPEEAKKFAERMAKELGGELKVENGTLKVE [M8E]
2. VTVDIKGMEYHNDNPEEAKKFAERMAKELGGELKVENGTLKVE [F12N]
3. VTVDIKGMEYHFDNPEEAKKFAERMANELGGELKVENGTLKVE [K27N]
4. VTVDIKGMEYHFDNPEEAHKFAERMAKELGGELKVENGTLKVE [K19H]

OUT:
1: 1.63 kcal/mol; 2: -0.908 kcal/mol; 3: 1.75 kcal/mol; 4: 1.98 kcal/mol

Parameters: items (list). Returns: folding stability dG for each item.
1. VTVDIKGMEYHFDNPEEAKKFAERFAKELGGELKVENGTLKVE [M25F]
2. VTVDIKGMEYHFDNPEEAKKFAERMADELGGELKVENGTLKVE [K27D]
3. VTVDIKGMEYHFDNPEEAKKFAARMAKELGGELKVENGTLKVE [E23A]
4. VTVDIKGMEYHFDNPEEAKKFAERMAKELGGELIVENGTLKVE [K34I]

OUT:
1.08 kcal/mol
1.56 kcal/mol
1.48 kcal/mol
2.28 kcal/mol
